test system: HeLa Kyoto; assay: melting temperature (median over replicates), in situ; higher = more thermally stable; conditions: cell cycle stage: mitosis
value kind: melting temperature

Solved entries (count: 2):
# sequence code, tested target, melting temperature
data = [
    ("MAAERQEALREFVAVTGAEEDRARFFLESAGWDLQIALASFYEDGGDEDIVTISQATPSSVSRGTAPSDNRVTSFRDLIHDQDEDEEEEEGQRFYAGGSERSGQQIVGPPRKKSPNELVDDLFKGAKEHGAVAVERVTKSPGETSKPRPFAGGGYRLGAAPEEESAYVAGEKRQHSSQDVHVVLKLWKSGFSLDNGELRSYQDPSNAQFLESIRRGEVPAELRRLAHGGQVNLDMEDHRDEDFVKPKGAFKAFTGEGQKLGSTAPQVLSTSSPAQQAENEAKASSSILIDESEPTTNIQIRLADGGRLVQKFNHSHRISDIRLFIVDARPAMAATSFILMTTFPNKELADESQTLKEANLLNAVIVQRLT [NSFL1C]", "HeLa Kyoto", "52 °C"),
    ("MAVTALAARTWLGVWGVRTMQARGFGSDQSENVDRGAGSIREAGGAFGKREQAEEERYFRAQSREQLAALKKHHEEEIVHHKKEIERLQKEIERHKQKIKMLKHDD [ATPIF1]", "HeLa Kyoto", "56.9 °C"),
]

Turning now to a further sequence:
What measured melting temperature goes with MADDFGFFSSSESGAPEAAEEDPAAAFLAQQESEIAGIENDEGFGAPAGSHAAPAQPGPTSGAGSEDMGTTVNGDVFQEANGPADGYAAIAQADRLTQEPESIRKWREEQRKRLQELDAASKVTEQEWREKAKKDLEEWNQRQSEQVEKNKINNRIADKAFYQQPDADIIGYVASEEAFVKESKEETPGTEWEKVAQLCDFNPKSSKQCKDVSRLRSVLMSLKQTPLSR [CLTB] ?
53.3 °C

====

test system: HeLa Kyoto; experiment: thermal stability score vs G1/S (z-score of summed log2 fold changes over temperatures); higher = more thermally stable than in G1/S; settings: cell cycle stage: mitosis
For each of the sequences below, state its thermal stability score.
Numbers only.

Solved entries (count: 4):
# sequence code, thermal stability score
records = [
    ("MARHVFLTGPPGVGKTTLIHKASEVLKSSGVPVDGFYTEEVRQGGRRIGFDVVTLSGTRGPLSRVGLEPPPGKRECRVGQYVVDLTSFEQLALPVLRNADCSSGPGQRVCVIDEIGKMELFSQLFIQAVRQTLSTPGTIILGTIPVPKGKPLALVEEIRNRKDVKVFNVTKENRNHLLPDIVTCVQSSRK [NTPCR]", 0.656),
    ("MAAERQEALREFVAVTGAEEDRARFFLESAGWDLQIALASFYEDGGDEDIVTISQATPSSVSRGTAPSDNRVTSFRDLIHDQDEDEEEEEGQRFYAGGSERSGQQIVGPPRKKSPNELVDDLFKGAKEHGAVAVERVTKSPGETSKPRPFAGGGYRLGAAPEEESAYVAGEKRQHSSQDVHVVLKLWKSGFSLDNGELRSYQDPSNAQFLESIRRGEVPAELRRLAHGGQVNLDMEDHRDEDFVKPKGAFKAFTGEGQKLGSTAPQVLSTSSPAQQAENEAKASSSILIDESEPTTNIQIRLADGGRLVQKFNHSHRISDIRLFIVDARPAMAATSFILMTTFPNKELADESQTLKEANLLNAVIVQRLT [NSFL1C]", 1.13),
    ("MCGNTMSVPLLTDAATVSGAERETAAVIFLHGLGDTGHSWADALSTIRLPHVKYICPHAPRIPVTLNMKMVMPSWFDLMGLSPDAPEDEAGIKKAAENIKALIEHEMKNGIPANRIVLGGFSQGGALSLYTALTCPHPLAGIVALSCWLPLHRAFPQAANGSAKDLAILQCHGELDPMVPVRFGALTAEKLRSVVTPARVQFKTYPGVMHSSCPQEMAAVKEFLEKLLPPV [LYPLA2]", 0.00875),
    ("MASDEGKLFVGGLSFDTNEQSLEQVFSKYGQISEVVVVKDRETQRSRGFGFVTFENIDDAKDAMMAMNGKSVDGRQIRVDQAGKSSDNRSRGYRGGSAGGRGFFRGGRGRGRGFSRGGGDRGYGGNRFESRSGGYGGSRDYYSSRSQSGGYSDRSSGGSYRDSYDSYATHNE [CIRBP]", -2.78),
]

Each of the following entries comes with a recorded value; kindly state thermal stability score for each.
1. MSKSKDDAPHELESQFILRLPPEYASTVRRAVQSGHVNLKDRLTIELHPDGRHGIVRVDRVPLASKLVDLPCVMESLKTIDKKTFYKTADICQMLVSTVDGDLYPPVEEPVASTDPKASKKKDKDKEKKFIWNHGITLPLKNVRKRRFRKTAKKKYIESPDVEKEVKRLLSTDAEAVSTRWEIIAEDETKEAENQGLDISSPGMSGHRQGHDSLEHDELREIFNDLSSSSEDEDETQHQDEEDINIIDTEEDLERQLQDKLNESDEQHQENEGTNQLVMGIQKQIDNMKGKLQETQDRAKRQEDLIMKVENLALKNRFQAVLDELKQKEDREKEQLSSLQEELESLLEK [TAF7]
2. MAATGANAEKAESHNDCPVRLLNPNIAKMKEDILYHFNLTTSRHNFPALFGDVKFVCVGGSPSRMKAFIRCVGAELGLDCPGRDYPNICAGTDRYAMYKVGPVLSVSHGMGIPSISIMLHELIKLLYYARCSNVTIIRIGTSGGIGLEPGTVVITEQAVDTCFKAEFEQIVLGKRVIRKTDLNKKLVQELLLCSAELSEFTTVVGNTMCTLDFYEGQGRLDGALCSYTEKDKQAYLEAAYAAGVRNIEMESSVFAAMCSACGLQAAVVCVTLLNRLEGDQISSPRNVLSEYQQRPQRLVSYFIKKKLSKA [UPP1]
3. MAAACRSVKGLVAVITGGASGLGLATAERLVGQGASAVLLDLPNSGGEAQAKKLGNNCVFAPADVTSEKDVQTALALAKGKFGRVDVAVNCAGIAVASKTYNLKKGQTHTLEDFQRVLDVNLMGTFNVIRLVAGEMGQNEPDQGGQRGVIINTASVAAFEGQVGQAAYSASKGGIVGMTLPIARDLAPIGIRVMTIAPGLFGTPLLTSLPEKVCNFLASQVPFPSRLGDPAEYAHLVQAIIENPFLNGEVIRLDGAIRMQP [HSD17B10]
4. MLSSTAMYSAPGRDLGMEPHRAAGPLQLRFSPYVFNGGTILAIAGEDFAIVASDTRLSEGFSIHTRDSPKCYKLTDKTVIGCSGFHGDCLTLTKIIEARLKMYKHSNNKAMTTGAIAAMLSTILYSRRFFPYYVYNIIGGLDEEGKGAVYSFDPVGSYQRDSFKAGGSASAMLQPLLDNQVGFKNMQNVEHVPLSLDRAMRLVKDVFISAAERDVYTGDALRICIVTKEGIREETVSLRKD [PSMB1]
5. MAERGYSFSLTTFSPSGKLVQIEYALAAVAGGAPSVGIKAANGVVLATEKKQKSILYDERSVHKVEPITKHIGLVYSGMGPDYRVLVHRARKLAQQYYLVYQEPIPTAQLVQRVASVMQEYTQSGGVRPFGVSLLICGWNEGRPYLFQSDPSGAYFAWKATAMGKNYVNGKTFLEKRYNEDLELEDAIHTAILTLKESFEGQMTEDNIEVGICNEAGFRRLTPTEVKDYLAAIA [PSMA2]
6. MAERGELDLTGAKQNTGVWLVKVPKYLSQQWAKASGRGEVGKLRIAKTQGRTEVSFTLNEDLANIHDIGGKPASVSAPREHPFVLQSVGGQTLTVFTESSSDKLSLEGIVVQRAECRPAASENYMRLKRLQIEESSKPVRLSQQLDKVVTTNYKPVANHQYNIEYERKKKEDGKRARADKQHVLDMLFSAFEKHQYYNLKDLVDITKQPVVYLKEILKEIGVQNVKGIHKNTWELKPEYRHYQGEEKSD [GTF2F2]
7. MSRYGRYGGETKVYVGNLGTGAGKGELERAFSYYGPLRTVWIARNPPGFAFVEFEDPRDAEDAVRGLDGKVICGSRVRVELSTGMPRRSRFDRPPARRPFDPNDRCYECGEKGHYAYDCHRYSRRRRSRSRSRSHSRSRGRRYSRSRSRSRGRRSRSASPRRSRSISLRRSRSASLRRSRSGSIKGSRYFQSPSRSRSRSRSISRPRSSRSKSRSPSPKRSRSPSGSPRRSASPERMD [SRSF7]

3.64
-3.64
-4.18
-1.88
-1.53
0.0418
-9.15

====

system: HeLa Kyoto; assay: thermal stability score vs G1/S (z-score of summed log2 fold changes over temperatures); higher = more thermally stable than in G1/S; settings: cell cycle stage: mitosis
value kind: thermal stability score
One number for each entry.

// lookup thermal stability score | system=HeLa Kyoto | key= MAAAANSGSSLPLFDCPTWAGKPPPGLHLDVVKGDKLIEKLIIDEKKYYLFGRNPDLCDFTIDHQSCSRVHAALVYHKHLKRVFLIDLNSTHGTFLGHIRLEPHKPQQIPIDSTVSFGASTRAYTLREKPQTLPSAVKGDEKMGGEDDELKGLLGLPEEETELDNLTEFNTAHNKRISTLTIEEGNLDIQRPKRKRKNSRVTFSEDDEIINPEDVDPSVGRFRNMVQTAVVPVKKKRVEGPGSLGLEESGSRRMQNFAFSGGLYGGLPPTHSEAGSQPHGIHGTALIGGLPMPYPNLAPDVDLTPVVPSAVNMNPAPNPAVYNPEAVNEPKKKKYAKEAWPGKKPTPSLLI [PPP1R8]
-0.547
